Reported IC50 values are given for each entry in this list.
Test system: Production of PGE₂ by Mouse Peritoneal Exudate Cells
TEST METHOD NOTES: PGE2 production by peritoneal macrophages
Format: cell-based
STATED CONDITIONS: Peritoneal macrophage, Table 10, LPS-stimulated, C. parvum-elicited peritoneal exudate cells, read-out: IC₅₀ (»M) production of PGE₂
VALUE TYPE: IC50 (nM)

Fc1ccc(-c2nc3n(c2-c2ccncc2)CCS3)cc1 [Compound 1]: 700
CC(C)Cc1ccc(C(C)C(=O)O)cc1 (stereo not drawn) [Ibuprofen, reference compound]: 500
O=C1CCN(c2ccccc2)N1 [Phenidone]: 28000

###

SYSTEM UNDER TEST: 5-Lipoxygenase (Rattus norvegicus, UniProt P12527)
Construct: The activities of these enzymes in extracts of RBL-1 cells were assayed; host or cells: RBL-1 cells, disrupted by nitrogen cavitation; 10,000 x g or 100,000 x g supernatant
TEST METHOD NOTES: 5-Lipoxygenase activity (5-HETE) in 10,000 x g supernatant of RBL-1 cells
Type: biochemical
STATED CONDITIONS: text b252; RBL-1 cell extracts; read-out: IC₅₀ 5-HETE synthesis
pIC50: −log10 of the molar value.
VALUE TYPE: pIC50

Fc1ccc(-c2nc3n(c2-c2ccncc2)CCS3)cc1: 4.12

###

SYSTEM UNDER TEST: 5-Lipoxygenase (Rattus norvegicus)
Construct: The activities of these enzymes in extracts of RBL-1 cells were assayed; host or cells: RBL-1 cells, disrupted by nitrogen cavitation; 10,000 x g or 100,000 x g supernatant
Sequence (P12527 1-673): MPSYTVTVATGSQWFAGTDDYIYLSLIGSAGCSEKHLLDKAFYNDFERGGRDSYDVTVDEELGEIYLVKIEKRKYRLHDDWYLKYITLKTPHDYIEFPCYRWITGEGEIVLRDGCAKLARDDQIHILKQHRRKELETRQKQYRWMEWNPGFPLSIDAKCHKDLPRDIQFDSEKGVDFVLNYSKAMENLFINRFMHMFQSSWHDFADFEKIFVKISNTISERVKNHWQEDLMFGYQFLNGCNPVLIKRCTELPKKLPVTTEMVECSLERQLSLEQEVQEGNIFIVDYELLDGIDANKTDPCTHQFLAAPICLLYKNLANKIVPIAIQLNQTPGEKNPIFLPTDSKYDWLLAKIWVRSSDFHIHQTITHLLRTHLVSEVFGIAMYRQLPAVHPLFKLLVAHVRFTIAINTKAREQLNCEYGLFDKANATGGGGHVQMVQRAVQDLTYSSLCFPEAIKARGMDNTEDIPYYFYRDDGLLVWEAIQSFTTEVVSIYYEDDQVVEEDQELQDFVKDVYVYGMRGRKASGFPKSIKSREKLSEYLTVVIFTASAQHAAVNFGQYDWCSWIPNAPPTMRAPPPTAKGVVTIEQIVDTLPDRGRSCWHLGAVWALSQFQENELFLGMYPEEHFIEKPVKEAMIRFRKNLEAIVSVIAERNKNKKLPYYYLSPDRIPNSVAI
TEST METHOD NOTES: 5-HETE production by RBL-1 high speed supernatant
Type: biochemical
STATED CONDITIONS: Table 8A; RBL-1 high speed supernatant
VALUE TYPE: IC50 (µM)

c1cc(-c2c(-c3ccc4c(c3)OCO4)nc3n2CCS3)ccn1: 10
Fc1ccc(-c2c(-c3ccccn3)nc3n2CCS3)cc1: 37
[O-][S+]1CCn2c1nc(-c1ccc(F)cc1)c2-c1ccc(F)cc1 (stereo not shown): 70
CC(=O)Nc1ccc(-c2nc3n(c2-c2ccncc2)CCS3)cc1: 69
c1cc(-c2nc3n(c2-c2ccncc2)CCS3)ccn1: 110
Fc1ccc(-c2nc3n(c2-c2ccc(F)cc2)CCC3)cc1: 12
COc1ccc(-c2nc3n(c2-c2ccc(OC)cc2)CCS3)cc1: 3.9
CCN(CC)c1ccc(-c2nc3n(c2-c2ccc(N(CC)CC)cc2)CCS3)cc1: 0.35
COc1ccc(-c2nc3n(c2-c2ccncc2)CCS3)cc1: 5.4
CCNc1ccc(-c2nc3n(c2-c2ccc(NCC)cc2)CCS3)cc1: 0.1
c1cc2c(cc1-c1nc3n(c1-c1ccc4c(c1)OCO4)CCS3)OCO2: 3.8
COc1ccc(-c2nc3n(c2-c2ccc(OC)cc2)CCCS3)cc1: 5.6
CCCNc1ccc(-c2nc3n(c2-c2ccncc2)CCS3)cc1: 12
Nc1ccc(-c2nc3n(c2-c2ccc(N)cc2)CCS3)cc1: 8
FC(F)(F)c1ccc(-c2nc3n(c2-c2ccc(C(F)(F)F)cc2)CCS3)cc1: 10
O=S1(=O)CCn2c1nc(-c1ccc(F)cc1)c2-c1ccc(F)cc1: 33
COc1ccc(-c2nc3n(c2-c2ccc(OC)cc2)CCS3(=O)=O)cc1: 10
c1cc(N2CCCC2)ccc1-c1nc2n(c1-c1ccc(N3CCCC3)cc1)CCS2: 0.23
[O-][S+]1CCn2c1nc(-c1ccncc1)c2-c1ccc(F)cc1 (stereo not shown): 101
CN(C)c1ccc(-c2c(-c3ccc(F)cc3)nc3n2CCS3)cc1: 5
CN(C)c1ccc(-c2nc3n(c2-c2ccc(F)cc2)CCS3)cc1: 0.8
COc1ccc(-c2nc3n(c2-c2ccc(F)cc2)CCS3)cc1: 2
c1cc(-c2nc3n(c2-c2ccc4c(c2)OCO4)CCS3)ccn1: 10
COc1ccc(-c2nc3n(c2-c2ccncc2)CCC3)cc1: 16
[O-][S+]1CCn2c1nc(-c1ccc(F)cc1)c2-c1ccncc1 (stereo not shown): 1000
c1cc(N2CCCCC2)ccc1-c1nc2n(c1-c1ccc(N3CCCCC3)cc1)CCS2: 1.2
c1cc(-c2c(-c3ccc(N4CCCC4)cc3)nc3n2CCS3)ccn1: 0.5
